- Subject Of Test: Neuropilin-1 (Homo sapiens) (UniProt O14786)
- Sequence (O14786 whole entry, looked up): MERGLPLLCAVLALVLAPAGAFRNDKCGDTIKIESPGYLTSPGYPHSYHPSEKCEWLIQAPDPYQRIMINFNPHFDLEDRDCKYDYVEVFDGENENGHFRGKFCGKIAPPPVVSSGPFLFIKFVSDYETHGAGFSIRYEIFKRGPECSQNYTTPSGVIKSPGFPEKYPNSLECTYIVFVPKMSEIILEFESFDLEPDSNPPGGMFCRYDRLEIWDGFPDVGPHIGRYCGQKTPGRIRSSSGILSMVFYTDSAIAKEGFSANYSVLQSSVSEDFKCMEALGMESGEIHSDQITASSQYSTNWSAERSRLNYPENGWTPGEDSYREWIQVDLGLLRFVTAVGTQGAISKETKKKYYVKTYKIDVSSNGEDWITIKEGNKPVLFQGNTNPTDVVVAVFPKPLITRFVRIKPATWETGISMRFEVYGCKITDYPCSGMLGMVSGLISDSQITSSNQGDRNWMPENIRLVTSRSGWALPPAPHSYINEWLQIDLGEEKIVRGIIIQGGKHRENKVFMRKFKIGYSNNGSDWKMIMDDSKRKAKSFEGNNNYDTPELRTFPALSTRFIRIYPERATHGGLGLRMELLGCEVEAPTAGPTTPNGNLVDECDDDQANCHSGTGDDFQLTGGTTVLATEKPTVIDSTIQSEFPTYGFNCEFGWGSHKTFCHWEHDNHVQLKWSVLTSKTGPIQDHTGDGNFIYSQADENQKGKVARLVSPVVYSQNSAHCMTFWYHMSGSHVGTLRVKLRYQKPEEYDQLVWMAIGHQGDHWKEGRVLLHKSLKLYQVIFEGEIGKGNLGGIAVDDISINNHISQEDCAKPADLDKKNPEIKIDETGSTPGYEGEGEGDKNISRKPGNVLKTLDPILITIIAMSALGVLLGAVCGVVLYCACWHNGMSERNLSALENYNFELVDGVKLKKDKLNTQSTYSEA
- Assay Details: NRP-1/CendR peptide interaction modulators – biochemical, fluorescence polarization, uHTS, primary screen (AID 602438)
- Details: FAM-RPARPAR peptide binding to NRP-1, fluorescence polarization; at 25 µM; stronger effect = higher value
The campaign covered roughly 360,000 compounds. About 3,100 (0.86%) were called active. What follows is part of a selection rich in actives, with near analogues and random picks from the rest.
Metric: inhibition (%)
Response body: numeric value in %, unit text excluded.

Return reported inhibition; argument: `C=CCOc1nc2c(c(=O)n(C)c(=O)n2C)n1Cc1ccc(Cl)cc1Cl`
7.1

Fill in the blank: the reported inhibition of `Cc1ccc(NC(=O)CCN2C(=O)c3ccccc3C2=O)cc1C` is ____.
15.6

Form field: reported inhibition of CC1OC2C(OC1C)N(S(C)(=O)=O)CCN2S(C)(=O)=O (stereo not drawn)
-3.5

Recorded inhibition of CC(C)C(C(=O)NCc1ccco1)N(CC1CCCO1)C(=O)CNS(=O)(=O)c1ccc(F)cc1 (stereo not drawn) , please.
15.8

Please report the recorded inhibition for CC1O[C@H](OC2C(COC3OC(CO)C(O)[C@H](O)C3O)OC(OC3CC[C@]4(C)C(CC[C@@]5(C)[C@@H]4C=C[C@]46OC[C@@]7(CCC(C)(C)C[C@H]74)C(O)C[C@@]56C)C3(C)C)C(O)C2O)C(O)C(O)C1O (stereo partly drawn) .
23.7

Could you tell me which inhibition is on file for C=C1C(=O)OC2C1CCC(C)=CCCC1(C)OC21 (stereo not drawn) ?
-0.7

Looking for the measured inhibition of CC1C(=O)N(Cc2ccccc2)c2ccccc2N1C(=O)c1ccccc1 (stereo not drawn) , can you help?
1.5

For Cc1cccc(C)c1NC(=O)C(c1ccc(C(F)(F)F)cc1)n1c(=O)c(-c2ccco2)nc2ccccc21 (stereo not drawn) , what is its reported inhibition?
-67

Record request: inhibition value, item `Cc1ccc(S(=O)(=O)/N=C2\C=C(NS(=O)(=O)c3ccc(C)cc3)C(=O)c3ccccc32)cc1`
24.8

Which value of inhibition has been reported for `CCOC(=O)N1CCC(N(CCOC)C(=O)Nc2ccc(C)c(C)c2)CC1` in the records?
-9.1

Which inhibition value belongs to `COc1ccc(Cl)cc1NC(=O)NCC1CCN(Cc2ccccc2F)CC1` ?
-1

Item under review: `C[C@@H]1ON(C)[C@H]2C[C@H]3c4cc(N5CCN(C)CC5)ccc4CCN3C(=O)[C@@H]12` . Reported inhibition?
4.7

# input compound: `C[C@@H]1CC[C@]2(O[C@@H](CCO)C[C@H](O)[C@H]2O)O1` ; wanted: its inhibition
-18.9

I am curious: what inhibition value has been reported for CC(NCCO)C(=O)C12CC3CC(CC(C3)C1)C2 (stereo not drawn) ?
6.1

# get_value(readout='inhibition', item= `C/C=N/NC(=O)CCCC(=O)N/N=C/C` )
15

Which inhibition value is on record for CCC(NC(=O)c1cc(COc2ccc(F)c(F)c2)on1)c1ccncc1 (stereo not drawn) ?
1.4

Using the record for Cc1ccc(C(CC(=O)O)NC(=O)c2ccc(S(=O)(=O)N3CCCC3)cc2)cc1 (stereo not drawn) , report its inhibition.
-5.6

Suppose we examine the compound `CCOC(=O)N1CCN(Cc2nc3c(c(=O)n(C)c(=O)n3C)n2Cc2ccccc2)CC1` ; what inhibition value has been reported?
-7.4

Look up inhibition for this compound: `Cc1ccc(S(=O)(=O)NNC(=O)/C=C/c2cccc(F)c2)cc1`
20.7

Any idea what inhibition was measured for `Cc1ccc2c(c1)-c1c(ssc1=S)C(C)(C)N2C(=O)CN1C(=O)c2ccccc2C1=O` ?
-1.5

Reported inhibition, compound `Cc1n[nH]c(=O)c2c(NC(=O)COC(=O)c3ncc(Cl)c(Cl)c3Cl)oc(C)c12` : ____
4.1

Fill in: inhibition of Cc1ccc(C2NC(=S)NC3=C2N2CCC3CC2)cc1 (stereo not drawn) is ___
11.9

// query inhibition value for entry `O=C(COC(=O)c1cccnc1Cl)NC12CC3CC(CC(C3)C1)C2`
8
